Each entry below carries its reported IC50 neutralization.
Target: HIV-1 MGRM-C-026 envelope glycoprotein (Env) (HIV-1)
Assay: cell-based or functional assay
Write the answer as a number in ng/mL, unit excluded.

Below are worked cases with known answers.
>  <binder>
PGT-123 (antibody, V domains shown) VH: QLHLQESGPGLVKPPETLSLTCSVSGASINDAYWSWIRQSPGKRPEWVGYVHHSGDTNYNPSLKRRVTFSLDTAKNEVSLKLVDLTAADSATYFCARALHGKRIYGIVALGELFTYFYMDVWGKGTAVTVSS VL: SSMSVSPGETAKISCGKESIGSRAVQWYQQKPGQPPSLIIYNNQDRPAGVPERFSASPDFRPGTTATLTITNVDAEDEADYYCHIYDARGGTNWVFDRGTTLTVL

>  <readout unit>
ng/mL

>  <IC50 neutralization>
3.1

$$$$
>  <binder>
PGT-136 (antibody, V domains shown) VH: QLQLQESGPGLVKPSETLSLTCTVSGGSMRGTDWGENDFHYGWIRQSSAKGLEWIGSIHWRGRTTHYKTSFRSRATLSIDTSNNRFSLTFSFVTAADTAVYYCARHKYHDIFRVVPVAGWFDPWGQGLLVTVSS VL: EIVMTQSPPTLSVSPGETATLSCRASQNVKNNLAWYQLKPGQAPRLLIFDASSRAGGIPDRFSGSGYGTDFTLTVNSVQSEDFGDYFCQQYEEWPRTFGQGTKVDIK

>  <readout unit>
ng/mL

>  <IC50 neutralization>
6.5

$$$$

Kindly review the next binder as well.
Incoming: Dear colleague, I am looking for the recorded IC50 neutralization of the following binder: PGT-125 (antibody, V domains shown) VH: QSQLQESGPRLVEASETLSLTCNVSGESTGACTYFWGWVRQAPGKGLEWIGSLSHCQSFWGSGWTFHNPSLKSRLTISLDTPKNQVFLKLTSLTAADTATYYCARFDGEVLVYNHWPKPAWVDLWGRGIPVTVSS VL: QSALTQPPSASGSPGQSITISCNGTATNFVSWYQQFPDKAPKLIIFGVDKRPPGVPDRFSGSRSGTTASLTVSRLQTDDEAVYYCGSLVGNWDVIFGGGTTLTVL
Outgoing: 10.6
